# inhibition at 10 µM per entry
Molecular target: ROS (Homo sapiens, UniProt P08922)
Sequence (P08922 28-2347): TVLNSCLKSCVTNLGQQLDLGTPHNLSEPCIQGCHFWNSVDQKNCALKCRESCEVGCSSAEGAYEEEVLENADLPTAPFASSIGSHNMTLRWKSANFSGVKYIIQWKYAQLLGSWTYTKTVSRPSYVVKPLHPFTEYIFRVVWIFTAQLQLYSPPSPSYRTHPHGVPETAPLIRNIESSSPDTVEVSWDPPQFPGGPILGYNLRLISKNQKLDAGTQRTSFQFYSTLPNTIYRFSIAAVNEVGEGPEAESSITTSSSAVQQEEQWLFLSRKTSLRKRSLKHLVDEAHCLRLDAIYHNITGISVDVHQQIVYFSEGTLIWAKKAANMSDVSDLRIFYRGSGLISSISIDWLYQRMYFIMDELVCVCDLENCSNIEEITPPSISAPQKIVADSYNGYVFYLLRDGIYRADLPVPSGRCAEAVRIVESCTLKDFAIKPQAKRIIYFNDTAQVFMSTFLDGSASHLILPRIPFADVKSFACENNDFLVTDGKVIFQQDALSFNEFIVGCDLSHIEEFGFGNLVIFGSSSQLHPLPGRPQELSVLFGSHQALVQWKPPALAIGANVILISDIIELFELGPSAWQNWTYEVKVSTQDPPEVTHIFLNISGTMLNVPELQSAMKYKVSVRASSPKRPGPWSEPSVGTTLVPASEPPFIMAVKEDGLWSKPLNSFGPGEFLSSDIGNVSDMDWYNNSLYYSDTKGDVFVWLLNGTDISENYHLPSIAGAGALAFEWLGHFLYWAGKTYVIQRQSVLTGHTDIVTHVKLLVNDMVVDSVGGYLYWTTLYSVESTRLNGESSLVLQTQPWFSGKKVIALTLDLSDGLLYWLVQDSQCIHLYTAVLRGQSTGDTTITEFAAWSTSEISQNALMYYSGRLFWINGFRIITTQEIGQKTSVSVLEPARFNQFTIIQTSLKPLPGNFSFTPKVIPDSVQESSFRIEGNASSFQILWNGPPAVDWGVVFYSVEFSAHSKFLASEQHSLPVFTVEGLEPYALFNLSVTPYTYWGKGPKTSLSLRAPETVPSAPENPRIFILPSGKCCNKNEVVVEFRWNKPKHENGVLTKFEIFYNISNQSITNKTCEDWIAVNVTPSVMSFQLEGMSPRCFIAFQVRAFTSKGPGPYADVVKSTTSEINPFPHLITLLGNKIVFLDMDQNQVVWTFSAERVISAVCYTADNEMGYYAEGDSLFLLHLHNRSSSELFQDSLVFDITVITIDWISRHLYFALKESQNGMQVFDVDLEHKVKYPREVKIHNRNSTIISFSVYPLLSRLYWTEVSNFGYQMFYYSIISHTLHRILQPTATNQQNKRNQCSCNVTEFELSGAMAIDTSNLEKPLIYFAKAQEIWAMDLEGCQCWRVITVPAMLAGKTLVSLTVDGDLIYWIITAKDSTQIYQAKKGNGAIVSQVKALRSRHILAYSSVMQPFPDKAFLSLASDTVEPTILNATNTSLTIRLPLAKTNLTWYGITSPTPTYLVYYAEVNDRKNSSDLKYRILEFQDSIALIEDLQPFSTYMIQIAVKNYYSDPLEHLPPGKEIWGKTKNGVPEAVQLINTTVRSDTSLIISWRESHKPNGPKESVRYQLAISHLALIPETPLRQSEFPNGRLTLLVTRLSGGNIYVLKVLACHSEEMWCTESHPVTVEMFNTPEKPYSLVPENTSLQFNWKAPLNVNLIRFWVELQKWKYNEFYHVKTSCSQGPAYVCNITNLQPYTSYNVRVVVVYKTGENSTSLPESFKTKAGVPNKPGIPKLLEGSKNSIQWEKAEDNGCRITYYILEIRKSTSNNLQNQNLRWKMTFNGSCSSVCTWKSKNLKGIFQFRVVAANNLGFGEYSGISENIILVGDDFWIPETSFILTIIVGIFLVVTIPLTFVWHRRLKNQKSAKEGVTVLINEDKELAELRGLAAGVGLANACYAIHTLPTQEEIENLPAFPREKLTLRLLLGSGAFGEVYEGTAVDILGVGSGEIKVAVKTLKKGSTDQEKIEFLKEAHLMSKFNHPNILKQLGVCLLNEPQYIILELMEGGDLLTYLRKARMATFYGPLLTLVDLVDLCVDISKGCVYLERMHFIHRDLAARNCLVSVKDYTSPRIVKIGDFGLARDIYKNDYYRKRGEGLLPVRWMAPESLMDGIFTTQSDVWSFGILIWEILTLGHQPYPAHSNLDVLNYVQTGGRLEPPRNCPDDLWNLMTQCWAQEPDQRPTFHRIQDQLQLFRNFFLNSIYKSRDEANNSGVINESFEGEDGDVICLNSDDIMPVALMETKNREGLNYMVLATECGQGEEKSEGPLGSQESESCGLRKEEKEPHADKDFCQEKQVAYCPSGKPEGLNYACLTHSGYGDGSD
Experiment: In vitro ROS enzymatic reaction assay (HTRF, Cisbio)
Format: biochemical
Parameters: ROS or EGFR enzyme, 0.008 ng/ul
Conditions: ROS kinase, compound at 10 uM; read-out: Kinase Inhib. 10 uM (%)
Method: The ROS enzymatic reactions were carried out with a high throughput screening platform for phosphor-detection of kinase activity. This platform based on homogeneous time resolved fluorescence (HTRF) technology from Cisbio Bioassays, Inc. (Cisbio). […] The reaction was allowed to proceed for 30 minutes at room temperature. An equal volume of detection buffer was then added to the reaction mix.
Provide only the numeric value, understood in %.

Some entries whose results are on file:
COMPOUND	REPORTED_METRIC	QUANTITATIVE_READOUT
Nc1nc(N)n(-c2ccccc2)/c(=N/c2ccccc2)n1 [drawing 258]	inhibition at 10 µM	34.5
O=C(c1cccc(-c2noc(-c3n[nH]c4c3CCCC4)n2)c1)N1CCCCC1 [drawing 248]	inhibition at 10 µM	39.5
Cc1cc(-c2ccccc2)c2ccc(N)nc2n1 [drawing 343]	inhibition at 10 µM	28.9
CSc1sc(-c2n[nH]cc2Br)c2c1C(=O)CC(C)(C)C2 [drawing 259]	inhibition at 10 µM	34
O=C(NNc1nc2ccccc2nc1Cc1ccccc1)c1cccc(Cl)c1 [drawing 229]	inhibition at 10 µM	24.3

Now consider the entry below.
Task: For the compound Cc1ccc(Cn2c(NCc3nc4ccccc4n3C)nc3ccccc32)cc1 [drawing 218] , give its measured inhibition at 10 µM value.
Output: 20.2

---

# pEC50 per entry
test system: U87 glioblastoma cell line; test: In-vitro cell survival assay (Alamar blue), U87; type: cell-based; conditions: 24 h; U87, one day after compound addition
Note on pEC50: it is the negative log10 of concentration, concentration in mol/L.

Some entries whose results are on file:
COMPOUND	REPORTED_METRIC	QUANTITATIVE_READOUT
C[C@@H](Oc1cc(-c2cnn(C3CCNCC3)c2)cnc1N)c1c(Cl)ccc(F)c1Cl [drawing 491]	pEC50	4.92
CC1=NNC(=O)/C1=C\c1cn(-c2ccccc2)nc1-c1ccccc1 [drawing 403]	pEC50	5.10
C[C@H](O)CN(C[C@H](C)O)C(=O)c1cccc(Nc2nccc(Nc3ccc4ncsc4c3)n2)c1 [drawing 420]	pEC50	4.68
O=C(NNc1nc2ccccc2nc1Cc1ccccc1)c1cccc(Cl)c1 [drawing 366]	pEC50	4.60
Nc1cccc(C2CCN(c3nccc(Nc4ccc5ncsc5c4)n3)CC2)c1 [drawing 439]	pEC50	4.85
O=C(NCCN1CCOCC1)c1cccc(Nc2nccc(Nc3ccc4ncsc4c3)n2)c1 [drawing 411]	pEC50	4.74

Task: For the compound CN1CCN(C(=O)c2cccc(Nc3nccc(Nc4ccc5ncsc5c4)n3)c2)CC1 [drawing 415] , give its measured pEC50 value.
Output: 4.66

---

# EC50 per entry
Test system: LN18 glioblastoma cell line
Assay: In-vitro cell survival assay (Alamar blue), LN18
Format: cell-based
Conditions: Homo sapiens, LN-18, 24 h; LN18, one day after compound addition
Description: Five tumor-derived cell lines were treated with the ROS inhibitor compounds and cell survival was monitored to determine the cancer prohibition effects of the compounds. The cell lines included HeLa, a cervical cancer cell line, and four glioblastoma cell lines U138, U87, LN18, and U118. […] The assay used Alamar blue as a redox-sensitive dye that interrogates mitochondrial fitness of cells, and these assays provided a readout for cell proliferation and viability. […]
Provide only the numeric value, understood in µM.

MOLECULE	EC50 (µM)
c1cc(Nc2nccc(Nc3ccc4ncsc4c3)n2)cc(C2CCNCC2)c1 [drawing 440]	18
CC(C)(CO)NC(=O)c1cccc(Nc2nccc(Nc3ccc4ncsc4c3)n2)c1 [drawing 408]	10
O=C(COc1ccccc1)NCC(c1cccs1)S(=O)(=O)c1ccc(Cl)cc1 (stereo not drawn) [drawing 427]	83

Task: For the molecule CC(C)c1nc(Nc2ccc3ncsc3c2)nc(N2CCOCC2)n1 [drawing 452] , give its measured EC50 value.
Output: 80

Task: For the molecule O=C(NCC1CCCCC1)c1cccc(Nc2nccc(Nc3ccc4ncsc4c3)n2)c1 [drawing 407] , give its measured EC50 value.
Output: 87

Task: For the molecule NC1CCN(C(=O)c2ccc(Nc3ncc(Cl)c(Nc4ccc5ncsc5c4)n3)cc2)CC1 [drawing 464] , give its measured EC50 value.
Output: 40

Task: For the molecule O=C(NCc1ccc(F)cc1)c1cccc(Nc2nccc(Nc3ccc4ncsc4c3)n2)c1 [drawing 423] , give its measured EC50 value.
Output: 9

Task: For the molecule NS(=O)(=O)c1ccc(CCNC(=O)c2cc(-c3cccs3)nc3ccccc23)cc1 [drawing 358] , give its measured EC50 value.
Output: 25
